- experimentalSystem: T1, human CD33 extracellular domain (human, UniProt P20138 18-259)
- T1 construct: soluble monomeric ECD; also called human CD33 ECD; hCD33
- assayOverview: SPR, Fab captured, 37C;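 also: fabs captured on an anti-Fab surface, soluble monomeric CD33 ECD flowed over at several concentrations, double-referenced curves fit to a 1:1 binding model, KD taken as koff/kon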
# koff listing for each entry below
Answer in s⁻¹, number only, no unit symbol.

# annotated cases, reported koff shown
binder	observed
ADI-10157 Fab (Fab, V domains shown, Fab fragment; also called Ab13) VH: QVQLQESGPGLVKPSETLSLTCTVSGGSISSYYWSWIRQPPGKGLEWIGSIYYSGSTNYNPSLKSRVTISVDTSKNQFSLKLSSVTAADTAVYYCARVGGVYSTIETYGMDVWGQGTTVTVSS VL: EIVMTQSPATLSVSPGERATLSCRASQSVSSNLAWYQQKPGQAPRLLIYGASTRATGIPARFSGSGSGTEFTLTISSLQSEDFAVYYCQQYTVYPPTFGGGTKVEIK	0.0076
ADI-11835 Fab (Fab, V domains shown, Fab fragment; also called Ab10; I35) VH: QLQLQESGPGLVKPSETLSLTCTVSGGSISSTDYYWGWIRQPPGKGLEWIGSIGYSGTYYNPSLKSRVTISVDTSKNQFSLKLSSVTAADTAVYYCARETAHDVHGMDVWGQGTTVTVSS VL: EIVLTQSPATLSLSPGERATLSCRASHSVYSYLAWYQQKPGQAPRLLIYDASNRATGIPARFSGSGSGTDFTLTISSLEPEDFAVYYCQQYDNLPTFGGGTKVEIK	0.00143
ADI-11830 Fab (Fab, V domains shown, Fab fragment; also called Ab9) VH: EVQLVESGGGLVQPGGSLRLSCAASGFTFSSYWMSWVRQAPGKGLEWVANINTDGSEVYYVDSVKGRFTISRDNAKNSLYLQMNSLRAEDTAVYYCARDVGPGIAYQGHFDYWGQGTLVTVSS VL: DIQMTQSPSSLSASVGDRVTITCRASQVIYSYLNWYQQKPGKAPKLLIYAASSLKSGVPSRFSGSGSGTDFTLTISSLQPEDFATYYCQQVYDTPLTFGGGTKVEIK	0.00547
ADI-10161 Fab (Fab, V domains shown, Fab fragment; also called Ab16) VH: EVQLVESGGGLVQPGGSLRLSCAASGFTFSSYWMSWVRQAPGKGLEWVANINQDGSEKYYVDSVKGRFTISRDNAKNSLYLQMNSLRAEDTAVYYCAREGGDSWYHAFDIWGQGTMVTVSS VL: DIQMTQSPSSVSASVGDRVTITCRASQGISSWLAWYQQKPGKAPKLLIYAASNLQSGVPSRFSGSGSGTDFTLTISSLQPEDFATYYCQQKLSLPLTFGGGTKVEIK	0.0118

The record that follows has no koff shown yet.
So what's the measured koff for this one? ADI-10159 Fab (Fab, V domains shown, Fab fragment; also called Ab1; G59) VH: EVQLVESGGGLVQPGGSLRLSCAASGFTFSSYGMSWVRQAPGKGLEWVANIKQDGSEKYYVDSVKGRFTISRDNAKNSLYLQMNSLRAEDTAVYYCAREGGPYYDSSGYFVYYGMDVWGQGTTVTVSS VL: DIQMTQSPSTLSASVGDRVTITCRASQSISSWLAWYQQKPGKAPKLLIYDASSLESGVPSRFSGSGSGTEFTLTISSLQPDDFATYYCQQYESFPTFGGGTKVEIK 0.00195
